Hello, the source for this data is ChEMBL document CHEMBL1201862, in case you need it.

System: OVCAR-3
PROTOCOL DETAILS: NCI tumour cell line growth inhibition, 48 h
Active and inactive are the calls of the source. No stated cut-off is given here; in the data, active = GI50 up to about 1.1 µM and inactive = higher.
API: response.call in yes (active), no (inactive)

Reference set (3 entries):
{"COMPOUND": "COc1nc2c(OC)cccc2c(OC)c1C=O", "TARGET OF ASSAY": "OVCAR-3", "ANSWER LABEL": "no"}
{"COMPOUND": "CCOC(=O)[C@@]1(C)C=C2O[C@@H]3OC4(CCCCC4)O[C@@H]3C2=C2C(O)=CC=C(O)[C@]21C(=O)OC", "TARGET OF ASSAY": "OVCAR-3", "ANSWER LABEL": "no"}
{"COMPOUND": "C/N=C(\\S)N/N=C/C(C)=N/N/C(S)=N/C", "TARGET OF ASSAY": "OVCAR-3", "ANSWER LABEL": "no"}

Query string: # outcome recorded in this test, key = NC(=O)c1cn(C2OC(CO)C(O)C2O)c2nc[n+]([O-])c(N)c12 (stereo not given)
Result string: yes

Query string: # outcome recorded in this test, key = Clc1cccc(N2CCN(CCCN3CCc4c([nH]c5ccccc45)C3c3cccnc3)CC2)c1 (stereo not given)
Result string: no

Query string: # outcome recorded in this test, key = COc1cc(/C=C(\C#N)C(N)=C(C#N)C#N)cc(O)c1O
Result string: no

Query string: # outcome recorded in this test, key = CCOC(=O)C1=C(O)C(=O)c2ccccc2C1=O
Result string: no

Query string: # outcome recorded in this test, key = CC(C)(C)c1cc2c(O)c(c1)Cc1cc(C(C)(C)C)cc(c1O)Cc1cc(C(C)(C)C)cc(c1O)Cc1cc(C(C)(C)C)cc(c1O)Cc1cc(C(C)(C)C)cc(c1O)Cc1cc(C(C)(C)C)cc(c1O)Cc1cc(C(C)(C)C)cc(c1O)Cc1cc(C(C)(C)C)cc(c1O)C2
Result string: no

###

System: MOLT-4
PROTOCOL DETAILS: NCI tumour cell line growth inhibition, 48 h
Calls of active or inactive are those of the source. Cut-off read from the data, not from the text of the source: active = GI50 up to about 1.1 µM and inactive = higher.
API: response.call in true (1) = active, false (0) = inactive

{"MOLECULE": "O=c1[nH]c(=O)n(C2CC(O)C(CO)O2)c2nc3ccc4cc5ccccc5cc4c3nc12 (stereo unspecified)", "ANSWER LABEL": "false (0)"}

Query string: # outcome recorded in this test, key = C=CCOn1c(C=C)nc2c(C)cccc21
Result string: false (0)

Query string: # outcome recorded in this test, key = CN1COCN/C1=N/C#N
Result string: false (0)

Query string: # outcome recorded in this test, key = C/C=C/C(=O)[C@@H](O)C(C)C
Result string: false (0)

Query string: # outcome recorded in this test, key = c1ccc2c(c1)SCCCSCCCS2
Result string: false (0)

Query string: # outcome recorded in this test, key = CC1CCCC2(O1)OC1CC(=O)OC1C1=C2C(=O)c2ccccc2C1=O (stereo unspecified)
Result string: false (0)

Query string: # outcome recorded in this test, key = CCOC(=O)N(c1ccccc1)N(CC)C(=O)/C(C)=N/Nc1ccc([N+](=O)[O-])cc1
Result string: false (0)

Query string: # outcome recorded in this test, key = CN(C)C(=S)/N=c1\ss/c(=N\C(=S)N(C)C)n1-c1cccc(Cl)c1
Result string: false (0)

Query string: # outcome recorded in this test, key = O=C1/C(=C/c2ccc(O)cc2)CCc2ccc([N+](=O)[O-])cc21
Result string: false (0)

Query string: # outcome recorded in this test, key = Oc1ccc(Br)cc1/C=N/c1ccc(/N=C/c2cc(Br)ccc2O)cc1
Result string: false (0)

Query string: # outcome recorded in this test, key = O=C(Nc1nccs1)NS(=O)(=O)n1cnc2ccccc21
Result string: false (0)

Query string: # outcome recorded in this test, key = Cn1cc2ccccc2c1-c1nc(F)nc(F)n1
Result string: false (0)

Query string: # outcome recorded in this test, key = COC(=O)CCC1(C)C2CCC1/C(=N/O)C2 (stereo unspecified)
Result string: false (0)

Query string: # outcome recorded in this test, key = O=c1[nH]c(=O)n(C2OC(CO)C(O)C(O)C2O)cc1F (stereo unspecified)
Result string: false (0)

Query string: # outcome recorded in this test, key = CCOC(=O)C1C(c2ccc(OC)cc2)c2c(n[nH]c2O)CC1(O)OCC (stereo unspecified)
Result string: false (0)

Query string: # outcome recorded in this test, key = Cn1c(=O)c2c(nc(NCCCCl)n2CC(=O)NCCCCl)n(C)c1=O
Result string: false (0)

###

Test system: SF-268
PROTOCOL DETAILS: NCI tumour cell line growth inhibition, 48 h
Active and inactive are the calls of the source. No stated cut-off is given here; in the data, active = GI50 up to about 1.1 µM and inactive = higher.
API: response.call in yes (1) (active), no (0) (inactive)

Reference set (5 entries):
{"COMPOUND": "C[C@]12CCC(=O)C(O)=C1CCC2=O", "ANSWER LABEL": "no (0)"}
{"COMPOUND": "O=C(O)CCNc1[nH]cnc2ncnc1-2", "ANSWER LABEL": "no (0)"}
{"COMPOUND": "O=C1CSC(c2ccc(Cl)cc2)N1c1ccc(-c2ccc(-n3c(-c4ccccc4)nc4ccccc4c3=O)cc2)cc1 (centres undefined)", "ANSWER LABEL": "no (0)"}
{"COMPOUND": "COc1ccc2cc1Oc1ccc(cc1)CC1c3cc(OC)c(cc3CCN1C)Oc1c(OC)c(OC)cc3c1C(C2)N(C)CC3 (centres undefined)", "ANSWER LABEL": "no (0)"}
{"COMPOUND": "COC(=O)/C=C/CC(=O)NS(C)(=O)=O", "ANSWER LABEL": "no (0)"}

Query string: # outcome recorded in this test, key = O=C(O)Cc1ccc2c(c1O)C(=O)c1c(ccc(CC(=O)O)c1O)C2=O
Result string: no (0)

Query string: # outcome recorded in this test, key = COc1cc([C@@H]2c3cc4c(c(O)c3C[C@H]3COC(=O)[C@@H]32)OCO4)cc(OC)c1O
Result string: yes (1)

Query string: # outcome recorded in this test, key = COC(=O)/C(=N/O)C(C(=O)C=C(C)C)C(=O)C(=O)Nc1nc2ccc([N+](=O)[O-])cc2s1 (centres undefined)
Result string: no (0)

Query string: # outcome recorded in this test, key = O=C(C/N=C(\CN(c1ccccc1)c1ccccc1)Oc1c([N+](=O)[O-])cc([N+](=O)[O-])cc1[N+](=O)[O-])N1CCNCC1
Result string: no (0)

###

Reported GI50 values for the following compounds.
System: HOP-62
PROTOCOL DETAILS: NCI tumour cell line growth inhibition, 48 h
Calls of active or inactive are those of the source. No stated cut-off is given here; in the data, active = GI50 up to about 1.1 µM and inactive = higher.

Query string: I'd like to know its GI50. The compound in question is CCCCCC/C=C1\CCC(CN(C)C)C1=O (stereo not drawn)
Result string: 19.6 µM (inactive)

Query string: I'd like to know its GI50. The compound in question is O=Cc1[nH]c2ccccc2c1Br
Result string: 18 µM (inactive)

Query string: I'd like to know its GI50. The compound in question is O=c1[nH]c(=O)n(C2OC(CO)C(O)C(O)C2O)cc1F (stereo not drawn)
Result string: > 100 µM (inactive)

###

System: CAKI-1
PROTOCOL DETAILS: NCI tumour cell line growth inhibition, 48 h
Calls of active or inactive are those of the source. No stated cut-off is given here; in the data, active = GI50 up to about 1.1 µM and inactive = higher.
API: response.call in yes (1) for active, no (0) for inactive

{"COMPOUND": "O=C(CSc1nc2nncc-2c(O)[nH]1)c1ccc(Cl)cc1", "ANSWER LABEL": "no (0)"}

Query string: # outcome recorded in this test, key = CC(=O)/C(=C/NC(=S)Nc1ccccc1)C(=O)Nc1ccccc1C
Result string: no (0)

Query string: # outcome recorded in this test, key = Cc1ccc(C(=O)N2c3ccccc3N(C)n3cccc3C2CC(=O)O)cc1 (stereo not drawn)
Result string: no (0)

Query string: # outcome recorded in this test, key = C1CSC(=[N+]2CC[N+](=C3SCCS3)CC2)S1
Result string: no (0)

Query string: # outcome recorded in this test, key = Oc1ccc(Br)cc1/C=N/c1ccc(/N=C/c2cc(Br)ccc2O)cc1
Result string: no (0)

Query string: # outcome recorded in this test, key = COc1cc(C(=O)c2cocc2C(=O)c2ccc3c(c2)OCO3)cc(OC)c1OC
Result string: yes (1)

Query string: # outcome recorded in this test, key = Nc1c(/C=C/c2cc3cc(C4=NCCN4)ccc3o2)[nH]c2cc(C3=NCCN3)ccc12
Result string: no (0)

Query string: # outcome recorded in this test, key = CC1=CCC[C@]2(C)C1=CC(=O)O[C@H]2c1ccoc1
Result string: no (0)

###

System: RXF 393
PROTOCOL DETAILS: NCI tumour cell line growth inhibition, 48 h
Activity calls are given as the source filed them. Cut-off read from the data, not from the text of the source: active = GI50 up to about 1.1 µM and inactive = higher.
API: response.call in active, inactive

Reference set (2 entries):
{"MOLECULE": "[O-][n+]1ccc(NO)c2ccccc21", "ANSWER LABEL": "active"}
{"MOLECULE": "CCCCCCCCCCOC1C(C(O)CNCCCN(C)C)OC2OC3(CCCCC3)OC21 (stereo not drawn)", "ANSWER LABEL": "inactive"}

Query string: # outcome recorded in this test, key = COc1ccccc1C1C(Cl)C(=O)N1NC(=O)Cc1ccccc1 (stereo not drawn)
Result string: inactive
